Cited source: patent US20250101135A1

target: T1, monomeric human CD19 antigen Fc(kih) fusion molecule (human, UniProt P0DOX5 223-449 = IgG part); assay: SPR ProteOn XPR36, Fab from bacterial supernatant captured via anti-human Fab, monomeric CD19-Fc analyte
T1 construct: also called monomeric CD19-Fc; human CD19-Fc(kih)
property: koff (s⁻¹)
I only need the number, in s⁻¹, no unit after it.

Example entries and their recorded answers appear below.
[
  {
    "binder": "anti-CD19 clone 8B8-7H07, Fab in bacterial supernatant (Fab, V domains shown) VH: QVQLVQSGAEVKKPGASVKVSCKASGYTFTDYIMHWVRQAPGQGLEWMGYINPYNDGSKYTEKFQGRVTMTSDTSISTAYMELSRLRSDDTAVYYCARGTYYYGSELFDYWGQGTTVTVSS VL: DIVMTQTPLSLSVTPGQPASISCKSSQSLETSTGNTYLNWYLQKPGQSPQLLIYRVSKRFSGVPDRFSGSGSGTDFTLKISRVEAEDVGVYYCLQATHIPYTFGQGTKLEIK",
    "koff [s⁻¹]": "5.75e-05"
  },
  {
    "binder": "anti-CD19 clone 8B8-5D08, Fab in bacterial supernatant (Fab, V domains shown) VH: QVQLVQSGAEVKKPGASVKVSCKASGYTFTDYIMHWVRQAPGQGLEWMGYINPYNDGSKYTEKFQGRVTMTSDTSISTAYMELSRLRSDDTAVYYCARGTYYYGSELFDYWGQGTTVTVSS VL: DIVMTQTPLSLSVTPGQPASISCKSSQSLETSTGNTYLNWYLQKPGQSPQLLIYRVSKRFSGVPDRFSGSGSGTDFTLKISRVEAEDVGVYYCLQLTHEPYTFGQGTKLEIK",
    "koff [s⁻¹]": 0.000195
  }
]

Here is another binder to look at.
Entry parental anti-CD19 clone 8B8, Fab in bacterial supernatant (Fab, V domains shown, conflicting; also called Parental 8B8; parental humanized clone 8B8) VH: QVQLVQSGAEVKKPGASVKVSCKASGYTFTDYIMHWVRQAPGQGLEWMGYINPYNDGSKYTEKFQGRVTMTSDTSISTAYMELSRLRSDDTAVYYCARGTYYYGSALFDYWGQGTTVTVSS VL: DIVMTQTPLSLSVTPGQPASISCKSSQSLENPNGNTYLNWYLQKPGQSPQLLIYRVSKRFSGVPDRFSGSGSGTDFTLKISRVEAEDVGVYYCLQLTHVPYTFGQGTKLEIK : reported koff = ? 0.000301
